Reported yeast fitness values are given for each entry in this list.
B1: tRNA (parent)
chain: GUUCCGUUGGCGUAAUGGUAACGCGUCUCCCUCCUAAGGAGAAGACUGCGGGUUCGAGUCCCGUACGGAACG

Variants of: B1
Assay: yeast fitness relative to wild type (ratio to wild type); higher = fitter; tRNA-Arg(CCU), competitive growth, 37 C, YPD
Variants at the floor of the assay were thinned out.
Number, no unit, nothing else.

Prompt: Any idea what its yeast fitness is? The variant is C27U G41A C60A
Response: 0.878

Prompt: Any idea what its yeast fitness is? The variant is U19C C62G
Response: 0.832

Prompt: Any idea what its yeast fitness is? The variant is C5G G39A
Response: 0.725
